- TGT: UniProt:P04585
- TEST SUMMARY: HIV-1 integrase catalytic activity of 3'-joining to the target DNA
- Assay type: biochemical
- MEASUREMENT SETUP: read-out: IC50, 3′-joining to the target DNA
QUANTITY: IC50 (nM)
Give the value in nM but do not write nM after it.

Lab note: O=C(/C=C/c1ccc(O)c2c1[C@H](C(=O)O[C@H](Cc1ccc(O)c(O)c1)C(=O)O)[C@@H](c1ccc(O)c(O)c1)O2)O[C@H](Cc1ccc(O)c(O)c1)C(=O)O gave IC50 of 370

---

- TGT: HIV-1 integrase (Human immunodeficiency virus type 1 group M subtype B, UniProt P04585)
- TEST SUMMARY: HIV-1 integrase catalytic activity of 3'-joining to the target DNA
- Type: biochemical
- Description: a. Salvia genus of Labiaceae family contains approximately 1000 species. 78 of these are distributed in different regions in China. […] An INi search was established based on an assay-guided purification procedure utilizing different concentrations of methanol, propanol, a two-layer extraction system (low salt water/butanol), and a high resolution inverted phase HPLC (Sperisorb OD S-2).
QUANTITY: pIC50
Kindly note that pIC50 refers to -log10 of the concentration in mol/L and answer with the value alone.

Lab note: O=C(/C=C/c1ccc(O)c2c1[C@H](C(=O)O)[C@@H](c1ccc(O)c(O)c1)O2)O[C@H](Cc1ccc(O)c(O)c1)C(=O)O gave pIC50 of 6.32
